Reference source for all entries: ChEMBL document CHEMBL1154466

run_description: Displacement of [3H]diazepam from benzodiazepine receptor in rat brain
Type: tissue-based
endpoint: pIC50

CN(C)c1ncnc2c1nc(N(C)C)n2Cc1ccccc1 | 5.24
CC(C)COc1nccc2c1[nH]c1ccccc12 | 7.03
c1ccc2c(c1)[nH]c1cnccc12 [NORHARMANE] | 5.79
CN(C)c1ncnc2c1ncn2Cc1cccc(OC(=O)C(C)(C)C)c1 | 5.8
Cc1nccc2c1[nH]c1ccccc12 [HARMAN] | 4.91
CN(C)c1ncnc2c1nc(Br)n2Cc1ccccc1 | 5.52
CCOC(=O)c1cc2c(cn1)[nH]c1ccccc12 | 8.3
CCc1nc(C(=O)OC)cc2c1[nH]c1ccccc12 | 5.12
CN(C)c1ncnc2c1ncn2Cc1cccc(O)c1 | 5.92
COc1cc2c(cn1)[nH]c1ccccc12 | 6.91
CC(C)CCOc1nccc2c1[nH]c1ccccc12 | 6.27
CCCOc1cc2c(cn1)[nH]c1ccccc12 | 7.96
CN(C)c1ncnc2c1nc(O)n2Cc1cccc(NC=O)c1 | 6.89
CCC(C)Oc1nccc2c1[nH]c1ccccc12 (centres undefined) | 6.33
